- Test system: mice
- ASSAY_SUMMARY: hot plate test according to Woolfe and MacDonald (analgesic activity, licking time)
- Type: in vivo
- CONDITION_DESCRIPTION: Mus musculus, ip
PROPERTY_MEASURED: ED50 (mg/kg)
Write down the numeric answer in mg/kg and omit the unit.

Answered cases to consult:
Clc1cccc(N2CCN(CCCc3nnc4n3C[C@H]3CCCC[C@H]3C4)CC2)c1 (relative stereo) [Example 40] | 53.9
FC(F)(F)c1cccc(N2CCN(CCCc3nnc4n3C[C@H]3CCCC[C@H]3C4)CC2)c1 (relative stereo) [Example 3] | 19.8

Then this molecule:
Lab note: measured ED50 of FC(F)(F)c1cccc(N2CCN(CCc3nnc4n3C[C@H]3CCCC[C@H]3C4)CC2)c1 (relative stereo) [Example 16] was 24.3

----------
- System: mice
- ASSAY_SUMMARY: hot plate test according to Woolfe and MacDonald (analgesic activity, licking time)
- Format: in vivo
- CONDITION_DESCRIPTION: Mus musculus, ip
PROPERTY_MEASURED: ED50 (mg/kg)
Write down the numeric answer in mg/kg and omit the unit.

Lab note: measured ED50 of FC(F)(F)c1cccc(N2CCN(CCc3nnc4n3CC3CCCC43)CC2)c1 (stereo not drawn) [Example 17a] was 21.3

Lab note: measured ED50 of Clc1cccc(N2CCN(CCc3nnc4n3[C@H]3CCCC[C@@H]3CC4)CC2)c1 (relative stereo) was 25.3

----------
- System: mice
- ASSAY_SUMMARY: phenylbenzoquinone test according to Siegmund (analgesic activity, contractions of the abdomen)
- Format: in vivo
- CONDITION_DESCRIPTION: Mus musculus, po, mice
Listing: ED50 of selected compounds
Write down the numeric answer in mg/kg and omit the unit.

Clc1cccc(N2CCN(CCCc3nnc4n3[C@H]3CCCC[C@H]3CC4)CC2)c1 (relative stereo) | 11.4
FC(F)(F)c1cccc(N2CCN(CCc3nnc4n3CC3CCCC43)CC2)c1 (stereo not drawn) [Example 17a] | 5.82

Then this compound:
Lab note: measured ED50 of Clc1cccc(N2CCN(CCc3nnc4n3CC3CCCCC43)CC2)c1 (stereo not drawn) was 8.7
